# EXPERIMENTAL_SYSTEM: T1, human MAdCAM expressed on cells (human, UniProt Q13477 19-382)
# T1 construct: whole, on cells; also called MADCAM1
# T1 sequence (looked up): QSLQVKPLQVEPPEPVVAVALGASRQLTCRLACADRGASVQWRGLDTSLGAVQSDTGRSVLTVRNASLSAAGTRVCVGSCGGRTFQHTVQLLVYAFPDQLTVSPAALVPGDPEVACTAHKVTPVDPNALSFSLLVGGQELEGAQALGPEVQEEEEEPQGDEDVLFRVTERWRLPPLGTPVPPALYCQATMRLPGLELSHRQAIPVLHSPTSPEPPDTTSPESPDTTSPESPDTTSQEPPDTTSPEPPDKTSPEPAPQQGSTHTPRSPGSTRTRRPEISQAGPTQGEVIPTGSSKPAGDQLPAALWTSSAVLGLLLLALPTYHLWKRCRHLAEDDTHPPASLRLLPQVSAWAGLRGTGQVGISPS
# MEASUREMENT_NOTES: cell binding

# BINDER, binding result
data = [
    ("MAdCAM antibody Clone ID 9 of Table 6 (scFv) (scFv) scFv: EVQLLESGGGLVQPGGSLRLSCAASGFTFSDYYMNWVRQAPGKGLEWVSVIGESGGSTYYADSVKGRFTISRDNSKNTLYLQMNSLRAEDTAVYYCAADPVSRWPKHGGGDYWGQGTLVTVSSGGGGSGGGGSGGGGSGGGGSDIQMTQSPSSLSASVGDRVTITCRASQGISSSLAWYQQKPGKAPKLLIYAASTLQSGVPSRFSGSGSGTDFTLTISSLQPEDFATYYCQQSYSTPWTFGQGTKVEIK", "binds"),
    ("MAdCAM antibody Clone ID 55 of Table 6 (scFv) (scFv) scFv: QVQLVQSGAEVKKPGASVKVSCKASGYTFTSYYMHWVRQAPGQGLEWMGIIDPSGGSTSYAQKFQGRVTMTRDTSTSTVYMELSSLRSEDTAVYYCAREEWSSGGVGYFDYWGQGTLVTVSSGGGGSGGGGSGGGGSGGGGSDIQMTQSPSSLSASVGDRVTITCRASQGISSYLAWYQQKPGKAPKLLIYATSSLQTGVPSRFSGSGSGTDFTLTISSLQPEDFATYYCQQTYSIPITFGQGTRLEIK", "binds"),
    ("MAdCAM antibody Clone ID 21 of Table 6 (scFv) (scFv) scFv: EVQLLESGGGLVQPGGSLRLSCAASGFTFSNAWMSWVRQAPGKGLEWVSTIVGNGGATYYADSVKGRFTISRDNSKNTLYLQMNSLRAEDTAVYYCARDNPLRWQGMDVWGQGTLVTVSSGGGGSGGGGSGGGGSGGGGSDIQMTQSPSSLSASVGDRVTITCRASQDISNYLNWYQQKPGKAPKLLIYAASSLQSGVPSRFSGSGSGTDFTLTISSLQPEDFATYYCQQSYSIPPTFGPGTKVDIK", "binds"),
]
